system_under_test: Human immunodeficiency virus type 1 protease (Human immunodeficiency virus 1, UniProt Q72874)
IC50: recorded values

compound	reading_qualifier	IC50, nM
CC(C)(C)NC(=O)C1N(C[C@@H](O)CNC(=O)[C@@H]2N[C@@H](C(NC(=O)Cc3ccccc3)C(=O)NCc3ccccc3)SC2(C)C)C(C)(C)SC1(C)C (stereo not given in full)	=	190
CC(C)(C)NC(=O)[C@@H]1C[C@@H]2CCCC[C@@H]2CN1CC(O)CNC(=O)[C@@H]1N[C@@H](C(NC(=O)Cc2ccccc2)C(=O)NCCNC(=O)OC(C)(C)C)SC1(C)C (stereo not given in full)	=	160
CC(C)(C)NC(=O)[C@@H]1C[C@@H](OC(C)(C)C)CN1CC(O)CNC(=O)[C@@H]1N[C@@H](C(NC(=O)Cc2ccccc2)C(=O)NCc2ccccc2)SC1(C)C (stereo not given in full)	=	1600
CC(C)(C)NC(=O)[C@@H]1CCCCN1C[C@H](O)CNC(=O)[C@@H]1N[C@@H](C(NC(=O)Cc2ccccc2)C(=O)NCc2ccccc2)SC1(C)C (stereo not given in full)	>	2200
COC(=O)C(NC(=O)Cc1ccccc1)[C@@H]1N[C@@H](C(=O)NC[C@H](O)CN2C[C@H]3CCCC[C@H]3C[C@H]2C(=O)NC(C)(C)C)C(C)(C)S1 (stereo not given in full)	=	54
CC(C)(C)NC(=O)[C@@H]1CSCN1CC(O)CNC(=O)[C@@H]1N[C@@H](C(NC(=O)Cc2ccccc2)C(=O)NCc2ccccc2)SC1(C)C (stereo not given in full)	=	450
CCNC(=O)C(NC(=O)Cc1ccccc1)[C@@H]1N[C@@H](C(=O)NCCNC(=O)[C@@H]2N[C@@H]([C@H](NC(=O)Cc3ccccc3)C(=O)NCC)SC2(C)C)C(C)(C)S1 (stereo not given in full)	=	5
CC(C)(C)NC(=O)[C@@H]1C[C@@H]2CCCC[C@@H]2CN1CC(O)CNC(=O)[C@@H]1N[C@@H](C(NC(=O)Cc2ccccc2)C(=O)NCCNC(=O)CCCC[C@@H]2SC[C@@H]3NC(=O)N[C@@H]32)SC1(C)C (stereo not given in full)	=	120
CC(C)(C)NC(=O)[C@@H]1C[C@@H]2CCCC[C@@H]2CN1C[C@H](O)CNC(=O)[C@@H]1N[C@@H](C(NC(=O)Cc2ccccc2)C(=O)NCC2CCCCC2)SC1(C)C (stereo not given in full)	=	300
CCO[C@@H]1C[C@@H](C(=O)NC(C)(C)C)N(C[C@@H](O)CNC(=O)[C@@H]2N[C@@H](C(NC(=O)Cc3ccccc3)C(=O)NCc3ccccc3)SC2(C)C)C1 (stereo not given in full)	>	35000
CC(C)(C)NC(=O)[C@@H]1CCCN1CC(O)CNC(=O)[C@@H]1N[C@@H](C(NC(=O)Cc2ccccc2)C(=O)NCc2ccccc2)SC1(C)C (stereo not given in full)	=	3100
CC(C)(C)NC(=O)[C@H]1CN(C(=O)Oc2ccccc2)CCN1C[C@@H](O)CNC(=O)[C@@H]1N[C@@H](C(NC(=O)Cc2ccccc2)C(=O)NCc2ccccc2)SC1(C)C (stereo not given in full)	=	82
CCNC(=O)C(NC(=O)Cc1ccccc1)[C@@H]1N[C@@H](C(=O)NCC(O)CN(C)[C@@H](CC2CCCCC2)C(=O)NC(C)(C)C)C(C)(C)S1 (stereo not given in full)	=	710
CCCCCCCNC(=O)C(NC(=O)Cc1ccccc1)[C@@H]1N[C@@H](C(=O)NCC(O)CN2C[C@H]3CCCC[C@H]3C[C@H]2C(=O)NC(C)(C)C)C(C)(C)S1 (stereo not given in full)	=	86
CC(C)(C)NC(=O)[C@@H]1CCCCN1C[C@@H](O)CNC(=O)[C@@H]1N[C@@H](C(NC(=O)Cc2ccccc2)C(=O)NCc2ccccc2)SC1(C)C (stereo not given in full)	=	6500
CC1(C)S[C@H](C(NC(=O)Cc2ccccc2)C(=O)NCc2ccccc2)N[C@H]1C(=O)N[C@H](Cc1ccccc1)[C@H](O)CC(=O)NCc1ccccc1 (stereo not given in full)	=	4600
CCNC(=O)C(NC(=O)Cc1ccccc1)[C@@H]1N[C@@H](C(=O)NCC(O)CN2C[C@H]3CCCC[C@H]3C[C@H]2C(=O)NC(C)(C)C)C(C)(C)S1 (stereo not given in full)	=	31
CC(C)(C)NC(=O)[C@@H]1CN(C(=O)Oc2ccccc2)CCN1C[C@@H](O)CNC(=O)[C@@H]1N[C@@H](C(NC(=O)Cc2ccccc2)C(=O)NCc2ccccc2)SC1(C)C (stereo not given in full)	=	58
CN(C)c1ccc(CNC(=O)C(NC(=O)Cc2ccccc2)[C@@H]2N[C@@H](C(=O)NC[C@H](O)CN3C[C@H]4CCCC[C@H]4C[C@H]3C(=O)NC(C)(C)C)C(C)(C)S2)cc1 (stereo not given in full)	=	26
CC(C)(C)NC(=O)[C@@H]1C[C@@H]2CCCC[C@@H]2CN1C[C@H](O)CNC(=O)[C@@H]1N[C@@H](C(NC(=O)Cc2ccccc2)C(=O)NCc2ccccc2)SC1(C)C (stereo not given in full)	=	160

###

Tested on: MT4
measurement_description: Compound was tested for effective concentration against MT-4 cell line
Format: functional, cell-based
run_parameters: Homo sapiens
pEC50: −log10 of the molar value.
pEC50: recorded values
assay_endpoint: pEC50

molecule	system_under_test	reading_qualifier	observed
CC(C)(C)NC(=O)[C@@H]1C[C@@H]2CCCC[C@@H]2CN1C[C@@H](O)[C@H](Cc1ccccc1)NC(=O)[C@H](CC(N)=O)NC(=O)c1ccc2ccccc2n1	MT4	=	8.70
CCNC(=O)C(NC(=O)Cc1ccccc1)[C@@H]1N[C@@H](C(=O)NCCNC(=O)[C@@H]2N[C@@H]([C@H](NC(=O)Cc3ccccc3)C(=O)NCC)SC2(C)C)C(C)(C)S1 (stereo not given in full)	MT4	=	5.27
CCNC(=O)C(NC(=O)Cc1ccccc1)[C@@H]1N[C@@H](C(=O)NCC(O)CN2C[C@H]3CCCC[C@H]3C[C@H]2C(=O)NC(C)(C)C)C(C)(C)S1 (stereo not given in full)	MT4	=	6.37
CCCCCCCNC(=O)C(NC(=O)Cc1ccccc1)[C@@H]1N[C@@H](C(=O)NCC(O)CN2C[C@H]3CCCC[C@H]3C[C@H]2C(=O)NC(C)(C)C)C(C)(C)S1 (stereo not given in full)	MT4	<	4.00
CN(C)c1ccc(CNC(=O)C(NC(=O)Cc2ccccc2)[C@@H]2N[C@@H](C(=O)NC[C@H](O)CN3C[C@H]4CCCC[C@H]4C[C@H]3C(=O)NC(C)(C)C)C(C)(C)S2)cc1 (stereo not given in full)	MT4	=	6.28
